Provide the recorded MIC for the entries that follow.
System: M. phlei DSM 750
protocol summary: MIC determination (broth microdilution)
Format: cell-based, Mycobacterium phlei
setup conditions: Mycolicibacterium phlei, DSM750; M. phlei DSM 750; read-out: MIC
Experimental: 1.1.1 In vitro experiments Determination of Minimal inhibitory concentrations (MIC) Approved Standard M07-A9.1 CFU mL-1. […] Albicidin and […] and serially diluted in DMSO (100%). […] in 0.1 N HCL, respectively. One row of each well plate served as a […] sterility control (only MHB II-media). […] adding 5 µL DMSO to several wells. […] for growth inhibition by naked eye.
Just the number in µg/mL, nothing appended.

Memo: COc1c(NC(=O)c2ccc(NC(=O)c3ccc(NC(=O)[C@H](Cc4c[nH]nn4)NC(=O)c4ccc(NC(=O)/C(C)=C/c5ccc(O)cc5)cn4)cc3)c(OC)c2O)ccc(C(=O)O)c1O , reported MIC: 4

Memo: COc1c(NC(=O)c2ccc(NC(=O)[C@H](Cc3c[nH]nn3)NC(=O)c3ccc(NC(=O)/C(C)=C/c4ccc(O)cc4)cc3)cc2)ccc(C(=O)Nc2ccc(C(=O)O)cn2)c1O , reported MIC: 4

Memo: COc1c(NC(=O)c2ccc(NC(=O)c3ccc(NC(=O)[C@H](Cc4c[nH]nn4)NC(=O)c4ccc(NC(=O)/C(C)=C/c5ccc(O)cc5)nc4)cc3)c(OC)c2O)ccc(C(=O)O)c1O , reported MIC: 4

Memo: COc1c(NC(=O)c2ccc(NC(=O)[C@H](Cc3c[nH]nn3)NC(=O)c3ccc(NC(=O)/C(C)=C/c4ccc(O)cc4)cc3)cc2)ccc(C(=O)Nc2ccc(C(=O)O)cc2)c1O [Compound 14, reference compound] , reported MIC: 1

Memo: COc1c(NC(=O)c2ccc(NC(=O)[C@H](Cc3c[nH]nn3)NC(=O)c3ccc(NC(=O)/C(C)=C/c4ccc(O)cc4)cc3)cc2)ccc(C(=O)Nc2ccc(C(=O)O)nc2)c1O , reported MIC: 32

###

protocol summary: in vitro
setup conditions: human, plasma, pH 7.4
Provide the recorded half-life at 20 µM for the entries that follow.

Memo: COc1c(NC(=O)c2ccc(NC(=O)c3ccc(NC(=O)[C@H](CC#N)NC(=O)c4ccc(NC(=O)/C(C)=C/c5ccc(O)cc5)cc4)cc3)c(OC)c2O)ccc(C(=O)O)c1O , reported half-life at 20 µM: 1 h

Memo: COc1c(NC(=O)c2ccc(NC(=O)c3ccc(NC(=O)[C@H](Cc4c[nH]nn4)NC(=O)c4ccc(NC(=O)/C(C)=C/c5ccc(O)cc5)cc4)cn3)c(OC)c2O)ccc(C(=O)O)c1O , reported half-life at 20 µM: > 4 h

Memo: COc1c(NC(=O)c2ccc(NC(=O)c3ccc(NC(=O)[C@H](Cc4c[nH]nn4)NC(=O)c4ccc(NC(=O)/C(C)=C/c5ccc(O)cc5)cc4)cc3)c(OC)c2O)ccc(C(=O)O)c1O , reported half-life at 20 µM: > 4 h

###

test system: E. coli DNA gyrase (Escherichia coli, UniProt P0AES4+P0AES6)
Construct: purchased inspiralis Limited, Norwich, UK
protocol summary: E. coli gyrase supercoiling inhibition assay
Format: biochemical
Set-up: key: ↑: for stronger inhibition; ≈: for equal inhibition; ↓: for diminished inhibition compared to albicidin 1
setup conditions: constant concentration of 45 nM, compared to albicidin 1
property: E. coli gyrase inhibition

Example entries and their recorded answers appear below.
Memo: COc1c(NC(=O)c2ccc(NC(=O)c3ccc(NC(=O)[C@H](Cc4c[nH]nn4)NC(=O)c4ccc(NC(=O)/C(C)=C/c5ccc(O)cc5)cc4)cc3)nc2)ccc(C(=O)O)c1O , reported E. coli gyrase inhibition: ↓

Memo: COc1c(NC(=O)c2ccc(NC(=O)[C@H](Cc3c[nH]nn3)NC(=O)c3ccc(NC(=O)/C(C)=C/c4ccc(O)cc4)cc3)cc2)ccc(C(=O)Nc2ccccc2)c1O , reported E. coli gyrase inhibition: ≈

Memo: COc1c(NC(=O)c2ccc(NC(=O)[C@H](Cc3c[nH]nn3)NC(=O)c3ccc(NC(=O)/C(C)=C/c4ccc(O)cc4)cc3)cc2)ccc(C(=O)Nc2ccc(C(=O)O)cc2)c1O [Compound 14, reference compound] , reported E. coli gyrase inhibition: ≈

Memo: COc1c(NC(=O)c2ccc(NC(=O)c3ccc(NC(=O)[C@H](Cc4c[nH]nn4)NC(=O)c4ccc(NC(=O)/C(C)=C/c5ccc(O)cc5)cc4)cn3)c(OC)c2O)ccc(C(=O)O)c1O , reported E. coli gyrase inhibition: ↑

Memo: COc1c(NC(=O)c2ccc(NC(=O)[C@H](Cc3c[nH]nn3)NC(=O)c3ccc(NC(=O)/C(C)=C/c4ccc(O)cc4)cc3)cc2)ccc(C(=O)Nc2ccc(C(=O)O)nc2)c1O , reported E. coli gyrase inhibition: ↓

***
Memo: COc1c(NC(=O)c2ccc(NC(=O)c3ccc(NC(=O)[C@H](Cc4c[nH]nn4)NC(=O)c4ccc(NC(=O)/C(C)=C/c5ccc(O)cc5)cc4)cc3)c(OC)c2O)ccc(C(=O)O)c1O , reported E. coli gyrase inhibition: ≈

Memo: COc1c(NC(=O)c2ccc(NC(=O)c3ccc(NC(=O)[C@H](Cc4c[nH]nn4)NC(=O)c4ccc(NC(=O)/C(C)=C/c5ccc(O)cc5)cc4)cc3)cc2)ccc(C(=O)O)c1O [Compound 11, reference compound] , reported E. coli gyrase inhibition: ≈

Memo: COc1c(NC(=O)c2ccc(NC(=O)c3ccc(NC(=O)[C@H](Cc4c[nH]nn4)NC(=O)c4ccc(NC(=O)/C(C)=C/c5ccccn5)cc4)cc3)c(OC)c2O)ccc(C(=O)O)c1O , reported E. coli gyrase inhibition: ↓

Memo: COc1c(NC(=O)c2ccc(NC(=O)c3ccc(NC(=O)[C@H](Cc4c[nH]nn4)NC(=O)c4ccc(NC(=O)/C(C)=C/c5ccc(O)cc5)cc4)cc3)cn2)ccc(C(=O)O)c1O , reported E. coli gyrase inhibition: ↓

Memo: COc1c(NC(=O)c2ccc(NC(=O)[C@H](Cc3c[nH]nn3)NC(=O)c3ccc(NC(=O)/C(C)=C/c4ccc(O)cc4)cc3)cc2)ccc(C(=O)Nc2ccc(C(=O)O)cn2)c1O , reported E. coli gyrase inhibition: ≈
